test: Pharmacokinetic analysis of T1-1 as a prodrug of MRS5474: plasma PK in mice after i.v. and p.o. dosing; assay type: in vivo, Male CD-1 mice; settings: male, mouse; IV(plasma), T1-1 dosed 1.35 mg/kg, CD-1 mice; analyte = label
readout_name: C0 (ng/mL)
Note: unit ng/mL is implicit; provide only the numeric part.

Bench note: what C0 did O=C(NCN(c1nc(Cl)nc2c1ncn2[C@H]1[C@H](O)[C@H](O)[C@@H]2C[C@@H]21)C(C1CC1)C1CC1)c1ccccc1 show? 613

* * *

experiment: Pharmacokinetic analysis of T1-1 as a prodrug of MRS5474: plasma PK in mice after i.v. and p.o. dosing; format: in vivo, Male CD-1 mice; details: male, mouse; IV(plasma), T1-1 dosed 1.35 mg/kg, CD-1 mice; analyte = label
readout_name: Cmax
The reply must contain the numeric value and, after it, the unit.

Bench note: what Cmax did O[C@@H]1[C@H](O)[C@@H]2C[C@@H]2[C@H]1n1cnc2c(NC(C3CC3)C3CC3)nc(Cl)nc21 [MRS5474, reference compound] show? 127 ng/mL
